These measurements were taken from patent US8772307B2.

target: vanilloid receptor (VR1) (Homo sapiens, UniProt Q8NER1); construct: expressed in transfected cells; host or cells: CHO K1 cells (ECACC), stably transfected; assay: Functional testing on vanilloid receptor (VR1): FLIPR Ca2+ inflow assay in CHO K1 cells stably transfected with the VR1 gene; format: cell-based; conditions: CHO-K1, inhibition compared to 10 μM CP (capsaicin)
Sequence (Q8NER1 whole entry): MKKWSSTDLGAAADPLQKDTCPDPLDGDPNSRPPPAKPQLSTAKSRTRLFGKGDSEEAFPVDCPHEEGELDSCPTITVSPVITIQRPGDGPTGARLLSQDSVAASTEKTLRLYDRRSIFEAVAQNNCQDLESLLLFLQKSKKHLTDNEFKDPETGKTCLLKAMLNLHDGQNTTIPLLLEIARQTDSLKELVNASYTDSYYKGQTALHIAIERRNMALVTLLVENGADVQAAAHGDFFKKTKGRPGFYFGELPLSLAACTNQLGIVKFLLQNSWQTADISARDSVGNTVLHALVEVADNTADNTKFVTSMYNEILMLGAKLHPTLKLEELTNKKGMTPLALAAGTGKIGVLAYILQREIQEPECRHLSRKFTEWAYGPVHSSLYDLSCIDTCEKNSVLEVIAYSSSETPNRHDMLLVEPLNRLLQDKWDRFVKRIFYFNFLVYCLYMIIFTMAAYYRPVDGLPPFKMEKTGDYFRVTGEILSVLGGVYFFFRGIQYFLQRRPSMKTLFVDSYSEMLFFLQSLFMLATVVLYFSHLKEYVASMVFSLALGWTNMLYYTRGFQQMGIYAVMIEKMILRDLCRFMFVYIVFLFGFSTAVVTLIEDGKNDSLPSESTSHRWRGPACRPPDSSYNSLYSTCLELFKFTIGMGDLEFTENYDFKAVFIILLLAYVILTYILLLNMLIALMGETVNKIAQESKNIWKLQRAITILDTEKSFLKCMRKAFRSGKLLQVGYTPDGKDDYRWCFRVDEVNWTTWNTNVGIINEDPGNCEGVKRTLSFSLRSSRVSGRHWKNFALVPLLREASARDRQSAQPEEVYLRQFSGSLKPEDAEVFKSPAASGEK
readout: inhibition at 10 µM (%)

CCCc1ccccc1NC(=O)N1CCC2(CC1)CC(c1ccccc1)=NO2 [Compound 22] : 10.1

A: CC(C)c1ccc(NC(=O)N2CCC3(CC2)CC(c2ccccc2)=NO3)cc1 [Compound 78]
B: CC(C)(C)c1ccc(NC(=O)N2CCC3(CC2)CC(c2ccc(F)cc2)=NO3)cc1 [Compound 349]
Recorded inhibition at 10 µM values differ for A and B ; which one is higher? Which one? Tell me its label.
A
(A: 11.8%, B: -12%)
